Test: recombinant UMI read abundance after kanamycin selection (control-corrected) (log10(CPM+1)); higher = more efficient recombination; extreme values may be limits of the assay; sequences stand for … in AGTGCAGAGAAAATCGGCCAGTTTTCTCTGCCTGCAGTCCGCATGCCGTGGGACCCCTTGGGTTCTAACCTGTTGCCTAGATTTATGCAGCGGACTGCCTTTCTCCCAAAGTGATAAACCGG…AGGTTGGTTTCACT; site = the 11-nt donor
Mark No for recombinant UMI read abundance (log10) values under 0.02, and Yes for everything at or above.

Record excerpt, results attached:
{"monomerSequence": "CTACTAACATGGACCGGTTTTCCCGGTAATCCGTATTTGGT (site CTACTAACTTC)", "groupLabel": "No"}
{"monomerSequence": "GAGCCTTCATGGACCGGTTTTCCCGGTAATCCGTATTTGGT (site AAGCCTTCTAC)", "groupLabel": "Yes"}
{"monomerSequence": "CGCCCTACATGGACCGGTTTTCCCGGTAATCCGTATTTGCT (site CGCCGTACTAG)", "groupLabel": "Yes"}
{"monomerSequence": "TCTACGTCATGGACCGGTTTTCCCGGTAATCCGTATTTGTC (site TCTACGTCTGA)", "groupLabel": "No"}
{"monomerSequence": "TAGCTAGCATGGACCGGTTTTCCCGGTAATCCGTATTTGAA (site TAGCGAGCTTT)", "groupLabel": "Yes"}
{"monomerSequence": "CCGTGAGCATGGACCGGTTTTCCCGGTAATCCGTATTTGTG (site CCGTAAGCTCA)", "groupLabel": "Yes"}
{"monomerSequence": "TTTCACGCATGGACCGGTTTTCCCGGTAATCCGTATTTGGT (site TTTCACGCTAC)", "groupLabel": "Yes"}
{"monomerSequence": "TGCTGGGCATGGACCGGTTTTCCCGGTAATCCGTATTTGCC (site TGCTGGGCTGG)", "groupLabel": "No"}

Kindly review the next sequence as well.
I'd appreciate it if you could say whether CTAGCAGCATGGACCGGTTTTCCCGGTAATCCGTATTTGCT (site CGAGCAGCTAG) has recombinant UMI read abundance (log10) at least equal to 0.02.
No

====

Assay: recombinant UMI read abundance after kanamycin selection (control-corrected) (log10(CPM+1)); higher = more efficient recombination; extreme values may be limits of the assay; sequences stand for … in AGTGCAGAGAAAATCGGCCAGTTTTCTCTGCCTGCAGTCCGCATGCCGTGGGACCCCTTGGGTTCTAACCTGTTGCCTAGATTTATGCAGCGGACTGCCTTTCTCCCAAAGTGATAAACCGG…AGGTTGGTTTCACT; site = the 11-nt donor
outcomeMeasure: recombinant UMI read abundance (log10)
Write no unit; give the number alone.

{"monomerSequence": "ACCCCGACATGGACCGGTTTTCCCGGTAATCCGTATTTGTG (site ACCCCGACTCA)", "recombinant UMI read abundance (log10)": 0.965}
{"monomerSequence": "GGAGCTACATGGACCGGTTTTCCCGGTAATCCGTATTTGAG (site GGAGCTACTCT)", "recombinant UMI read abundance (log10)": 0.606}
{"monomerSequence": "ACGAGAACATGGACCGGTTTTCCCGGTAATCCGTATTTGAG (site ACCAGAACTCT)", "recombinant UMI read abundance (log10)": 0.752}
{"monomerSequence": "AATTGTGCATGGACCGGTTTTCCCGGTAATCCGTATTTGGA (site AATTGTGCTTC)", "recombinant UMI read abundance (log10)": 0.895}
{"monomerSequence": "CAATCGTCATGGACCGGTTTTCCCGGTAATCCGTATTTGCT (site CGATCATCTAG)", "recombinant UMI read abundance (log10)": 0}
{"monomerSequence": "TGCCGTACATGGACCGGTTTTCCCGGTAATCCGTATTTGCT (site AGCCGTACTAG)", "recombinant UMI read abundance (log10)": 0.792}

Quick one: recombinant UMI read abundance (log10) for CGAGCACCATGGACCGGTTTTCCCGGTAATCCGTATTTGCT (site CGAGCACCTAG) ?
0

Here is the next sequence: ATAAAGCCATGGACCGGTTTTCCCGGTAATCCGTATTTGAC (site ATAACGCCTGT)
0

Here is the next sequence: TCCATTTCATGGACCGGTTTTCCCGGTAATCCGTATTTGCC (site TCCACTTCTGG)
0

====

Test: recombinant UMI read abundance after kanamycin selection (control-corrected) (log10(CPM+1)); higher = more efficient recombination; extreme values may be limits of the assay; sequences stand for … in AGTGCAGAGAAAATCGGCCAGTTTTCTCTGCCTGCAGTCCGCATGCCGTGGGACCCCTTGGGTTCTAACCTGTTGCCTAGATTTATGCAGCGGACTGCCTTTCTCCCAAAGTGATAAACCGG…AGGTTGGTTTCACT; site = the 11-nt donor
In this section we review reported recombinant UMI read abundance (log10) values for a set of sequences.
Write no unit; give the number alone.

Some solved cases for reference:
{"monomerSequence": "CTAGCAGCATGGACCGGTTTTCCCGGTAATCCGTATTTGCT (site CCAGCAGCTAG)", "quantitativeResult": 0.129}
{"monomerSequence": "CGGACATCATGGACCGGTTTTCCCGGTAATCCGTATTTGAT (site CGGACATCTAT)", "quantitativeResult": 1.84}
{"monomerSequence": "TAATGACCATGGACCGGTTTTCCCGGTAATCCGTATTTGCC (site TAATGACCTGG)", "quantitativeResult": 0}

Quick one: recombinant UMI read abundance (log10) for GGATCGCCATGGACCGGTTTTCCCGGTAATCCGTATTTGCG (site GGATCGCCTCG) ?
0.0649

Here is the next sequence: AGGACGGCATGGACCGGTTTTCCCGGTAATCCGTATTTGCA (site AGGAAGACTTG)
0

====

Assay: recombinant barcode read abundance after kanamycin selection (control-corrected) (log10(CPM+1)); higher = more efficient recombination; sequences stand for … in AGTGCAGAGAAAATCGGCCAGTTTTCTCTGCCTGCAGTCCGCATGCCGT…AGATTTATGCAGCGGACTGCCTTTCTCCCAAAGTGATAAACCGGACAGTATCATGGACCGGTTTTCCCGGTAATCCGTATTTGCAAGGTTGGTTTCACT; site = the 11-nt target
outcomeMeasure: recombinant barcode read abundance (log10)
Write no unit; give the number alone.

{"monomerSequence": "AGGTTTGCTTGGGTTCTAACCTGTTGCTT (site AGGTTTGCTAA)", "quantitativeResult": 0.00886}
{"monomerSequence": "GAGGGGACTTGGGTTCTAACCTGTTGCAG (site TCCTTCTCTAG)", "quantitativeResult": 0.307}
{"monomerSequence": "CGCCTCCCTTGGGTTCTAACCTGTTGCAT (site GGCCTCCCTAT)", "quantitativeResult": 0}

Quick one: recombinant barcode read abundance (log10) for GTCACCTCTTGGGTTCTAACCTGTTGCCT (site GTCACCTCTAG) ?
1.8

Here is the next sequence: TAGTGATCTTGGGTTCTAACCTGTTGCCT (site TATTGATCTAG)
0.0361

====

In this section we review reported recombinant barcode read abundance (log10) values for a set of sequences.
Assay: recombinant barcode read abundance after kanamycin selection (control-corrected) (log10(CPM+1)); higher = more efficient recombination; sequences stand for … in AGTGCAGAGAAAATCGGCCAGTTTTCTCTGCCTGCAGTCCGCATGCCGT…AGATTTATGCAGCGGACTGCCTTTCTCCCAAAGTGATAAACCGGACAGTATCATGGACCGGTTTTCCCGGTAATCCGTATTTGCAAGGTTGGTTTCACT; site = the 11-nt target
Write no unit; give the number alone.

Some solved cases for reference:
{"monomerSequence": "TGACCTTCTTGGGTTCTAACCTGTTGCCT (site TGACGTTCTAG)", "quantitativeResult": 0.0226}
{"monomerSequence": "TAGTGATCTTGGGTTCTAACCTGTTGCCT (site TAGTGATCTAG)", "quantitativeResult": 0.783}
{"monomerSequence": "GGAGAGGCTTGGGTTCTAACCTGTTGCCT (site GGAGACGCTAG)", "quantitativeResult": 0.143}
{"monomerSequence": "GGAATGCCTTGGGTTCTAACCTGTTGCCT (site GGAATGCCTAG)", "quantitativeResult": 0.975}
{"monomerSequence": "GTGTGTTCTTGGGTTCTAACCTGTTGCCT (site GTGTGTGCTAG)", "quantitativeResult": 0}

Quick one: recombinant barcode read abundance (log10) for AGGAACCCTTGGGTTCTAACCTGTTGCTA (site AGGAACCCTCA) ?
0.0647

====

Assay: recombinant barcode read abundance after kanamycin selection (control-corrected) (log10(CPM+1)); higher = more efficient recombination; sequences stand for … in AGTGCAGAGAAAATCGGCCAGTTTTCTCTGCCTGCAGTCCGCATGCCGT…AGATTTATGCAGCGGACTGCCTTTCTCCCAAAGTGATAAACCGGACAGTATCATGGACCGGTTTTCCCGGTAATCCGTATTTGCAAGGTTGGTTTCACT; site = the 11-nt target
outcomeMeasure: recombinant barcode read abundance (log10)
Write no unit; give the number alone.

{"monomerSequence": "CCTAGATCTTGGGTTCTAACCTGTTGCCT (site CCTAGATCTAG)", "quantitativeResult": 0.372}
{"monomerSequence": "GTAACCTCTTGGGTTCTAACCTGTTGCCC (site GTAACCTCTTG)", "quantitativeResult": 0.128}

Quick one: recombinant barcode read abundance (log10) for CACTGATCTTGGGTTCTAACCTGTTGCCT (site CACTGATCTAG) ?
1.28

Here is the next sequence: GAGACAACTTGGGTTCTAACCTGTTGCCT (site GGGACAGCTAG)
0.303

Here is the next sequence: TTGCCGACTTGGGTTCTAACCTGTTGCCT (site TTGCCGACTAG)
0.716

These data points were gathered from the supplement of paper PMC11208160.
